Where these numbers come from: PubChem BioAssay (NCI)

system: MDA-MB-468 breast; assay: NCI-60 one-dose screen, 48 h; conditions: 10 µM unless noted
About 83,000 compounds went through this panel and 20% of them were active in at least one assay; those are over-represented in the sample as a whole. The source made the active and inactive calls. How the source made its calls: active means growth percent below 10; inactive means the rest.
Lab note: assign the record to one of y = active, n = inactive

Query: Tell me the recorded outcome of this test for OCC1(CCCc2ccccc2)CCCN(c2nccc3ccccc23)C1 (centres undefined) .
Result: y

Query: Dear colleague, could you share the recorded outcome for "CC(C)CSc1nc(NCCc2c[nH]c3ccccc23)c(C#N)c(-c2ccccc2)n1" when you have a moment?
Result: n

Query: Please state the recorded outcome for this compound: "CN(C)CCn1c2ccccc2c2nc3ccc([N+](=O)[O-])cc3nc21"
Result: y

Query: Per the assay record, what outcome was assigned to "Nc1nnc(-c2c[nH]c3ncc(Br)cc23)c(-c2c[nH]c3ccc(F)cc23)n1" ?
Result: n

Query: Just curious, what result did CCOC(=O)/C=C/c1cccc2c1C(=O)NC(C)(c1cc3cc(Br)ccc3oc1=O)N2 (centres undefined) get here?
Result: n

Query: So what was the verdict on CC1CCCCN1CCCNC(=O)N/C(N)=N/c1nc2ccccc2s1 (centres undefined) in this test?
Result: n

Query: Which outcome was assigned to "Cc1ncsc1-c1ccc(CNC(=O)[C@@H]2C[C@@H](O)CN2C(=O)[C@@H](NC(=O)C2(F)CC2)C(C)(C)C)c(OCCOCCOCCOCCOc2nc(Nc3cc(S(C)(=O)=O)ccc3N[C@@H](c3cccc4c3OC(F)(F)O4)c3ncccc3Cl)nc(N3CCNCC3)n2)c1" in this test?
Result: y

Query: What did this assay record as the result for "COc1cc(OC)cc(-c2cc3ccc(N(C)C)cc3c(=O)[nH]2)c1" ?
Result: n

Query: Please indicate how the test categorized CCOP(=O)(OCCCl)c1nc(-c2ccc(C)cc2)oc1NCc1ccccc1 (centres undefined) .
Result: n

Query: Name the outcome recorded for "Cc1ccc(C(=O)CSc2nc3ccc(C)cc3c(=O)n2-c2ccc(F)cc2)cc1" in the assay.
Result: n

Query: Answer briefly: the call reported for "NS(=O)(=O)c1ccc(N=Nc2c(O)n(CC(=O)Nc3ccccc3Cl)c3ccccc23)cc1" in this assay.
Result: n

Query: For this compound, state the assay outcome: "O=C(O)c1cccc(-c2ccc(/C=N/NC(=O)c3[nH]c4ccc(Br)cc4c3-c3ccccc3)s2)c1"
Result: n

Query: Outcome logged for "COc1cc(/C=C/C(=O)c2ccccc2)ccc1Oc1nc(Nc2ccc(F)cc2)nc(N(C)C)n1" in this assay:
Result: n

Query: Answer briefly: the call reported for C=C1CCC2C3(C)COC(c4cc(F)cc(F)c4)OC3CCC2(C)C1CC(O)C1=CCOC1=O (centres undefined) in this assay.
Result: n

Query: Just curious, what result did "Cc1cc(=O)oc2cc(OCCCOc3ccc(/C=C/C(=O)Nc4ccccc4N)cc3)ccc12" get here?
Result: y

Query: Which outcome was entered for the compound "O=C(Cn1c(/C=C/c2cccc([N+](=O)[O-])c2)nc2ccccc2c1=O)Nc1ccccc1" in this test?
Result: n

Query: Dear all, I need the recorded test outcome for "O=C(c1ccccc1)c1ccc2nc(-c3cccc(Cl)c3)[nH]c2c1" , thank you.
Result: n

Query: Which result was noted for this compound in the test: "CC(=O)Nc1ccc(C(=O)NC(=S)Nc2ccc(S(N)(=O)=O)cc2)cc1"
Result: n

Query: Would you mind telling me which call this test gave "Cc1cc(C)n(-c2ccc3nnc(-c4ccccc4)n3n2)n1" ?
Result: n

Query: # fetch the recorded call for C=C1CC[C@@H]2[C@]3(C)COC(c4ccccc4)O[C@@H]3CC[C@@]2(C)[C@@H]1C/C=C1/C(=O)OCC1OC(C)=O (some centres undefined) here
Result: y

Query: // param item: Cc1cccc(NC(=O)[C@]23CCC(C)(C)CC2C2=CCC4[C@@]5(C)C[C@@H](O)[C@H](O)[C@@](C)(CO)C5CC[C@@]4(C)[C@]2(C)CC3)c1 (some centres undefined) ; yields the recorded call
Result: y

Query: Call for entry "COc1ccc(-c2ccnc(SCc3cc4cc(Cl)ccc4[nH]c3=O)n2)cc1" :
Result: n

Query: Assay outcome for O=C(/C=C/c1ccc(O)c(O)c1)NC1CCOC1O (centres undefined) : what was it?
Result: n

Query: I'd appreciate the recorded outcome for "Cc1cc2nc3c4ccccc4n(CC4=NCCN4)c3nc2cc1C" from this test.
Result: y

Query: What did this assay record as the result for "CN1CCN(c2ccc3c(c2)nc(NNC(=O)c2cnccn2)c2cccn23)CC1" ?
Result: y

Query: Dear all, I need the recorded test outcome for Cc1ccc([C@H]2C(C(=O)c3ccc(Cl)cc3)C3(N[C@@H]2c2ccccc2)C(=O)Nc2ccc(Br)cc23)cc1 (some centres undefined) , thank you.
Result: n

Query: Please let me know the test result on file for "COC(=O)C[C@](O)(CCCC(C)(C)O)C(=O)O[C@H]1C(OC)=C[C@@]23CCCN2CCc2cc4c(cc2[C@@H]13)OCO4" .
Result: y

Query: # lookup: test call for Cc1sc(C(NC(=O)OCCn2c([N+](=O)[O-])cnc2C)C(F)(F)Cl)nc1-c1ccc(OC(F)(F)F)cc1 (centres undefined)
Result: y

Query: How did this test come out for C#CCOc1cc(N(CC)CC)ccc1C(C(=O)NC(C)(C)C)N(C(=O)C1CCc2cc(F)ccc2O1)c1ccc(Br)cc1 (centres undefined) ?
Result: n
